# TEST_TARGET: UniProtKB A0A5K4ESD7
# Sequence (A0A5K4ESD7 entry or part of it): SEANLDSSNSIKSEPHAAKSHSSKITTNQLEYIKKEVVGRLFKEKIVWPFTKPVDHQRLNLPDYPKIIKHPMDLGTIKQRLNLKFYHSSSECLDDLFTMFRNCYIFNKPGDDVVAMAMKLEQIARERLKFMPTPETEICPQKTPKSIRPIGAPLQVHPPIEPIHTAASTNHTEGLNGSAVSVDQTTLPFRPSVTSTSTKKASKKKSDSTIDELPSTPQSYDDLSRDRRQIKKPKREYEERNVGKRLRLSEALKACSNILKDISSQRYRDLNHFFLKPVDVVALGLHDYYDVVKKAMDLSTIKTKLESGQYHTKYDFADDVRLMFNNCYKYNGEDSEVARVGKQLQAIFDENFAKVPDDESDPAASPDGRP
# MEASUREMENT_DESCRIPTION: biochemical
# Assay type: binding
# PROTOCOL_CONDITIONS: ITC stoichiometry; n=1 ± error of curve fit
Assign N number, binding to SmBRD3(1,2) to each entry below.
The reply should be a number, written without any unit.

Inquiry: What does the record list as N number, binding to SmBRD3(1,2) for Cc1noc(C)c1-c1cc(O)cc(C(O)c2ccc(F)cc2)c1 (centres unmarked) [Compound 3, OXFBD02-F, reference compound] ?
Reply text: 1.05

Inquiry: Also need CC(=O)Oc1cc(-c2c(C)noc2C)cc(C(O)c2ccccc2)c1 (centres unmarked) [OXFBD03 (2), OXFBD03, reference compound] , thanks.
Reply text: 1.17

Inquiry: Now the same for Cc1noc(C)c1-c1cc(O)cc(C(O)c2cccnc2)c1 (centres unmarked) [OXFBD04 (4), OXFBD04, reference compound]
Reply text: 1.39

Inquiry: And for CC(=O)N1c2ccc(-c3ccc(C(=O)O)cc3)cc2[C@H](Nc2ccc(Cl)cc2)C[C@@H]1C [I-BET726 (8), I-BET726, reference compound] ?
Reply text: 1.66

Inquiry: Same question for Cc1noc(C)c1-c1cc(O)cc(C(O)c2ccccc2)c1 (centres unmarked) [OXFBD02 (1), OXFBD02, reference compound] please.
Reply text: 1.61
